The measured values listed here are drawn from patent US8778412B2.

Exercise: state measured pIC50 for each of the compounds provided.
system_name: HIFPH2 (EGLN1) (Homo sapiens (Human), UniProt Q9GZT9)
Sequence (Q9GZT9 179-426): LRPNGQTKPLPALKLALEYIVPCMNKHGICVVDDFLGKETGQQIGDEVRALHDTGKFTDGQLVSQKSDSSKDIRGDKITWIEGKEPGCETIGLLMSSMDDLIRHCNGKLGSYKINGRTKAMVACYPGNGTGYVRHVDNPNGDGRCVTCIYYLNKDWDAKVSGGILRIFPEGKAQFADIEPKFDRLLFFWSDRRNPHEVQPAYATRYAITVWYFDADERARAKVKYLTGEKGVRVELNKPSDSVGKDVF
assay_name: EGLN-1 Activity Assay (MALDI-TOF MS)
test_settings: recombinant human EGLN-1-179/426, HIF-1α peptide 556-574
Expect pIC50 as a plain number equal to -log10 of the molar concentration.

Task item: Sample O=c1c(O)c(CN2CCN(Cc3ccccc3)CC2)ccn1Cc1ccccc1 — what was its pIC50?
Reply: 4.77

Task item: Lookup O=c1c(O)c(CNCc2ccccc2)ccn1Cc1ccc(Cl)cc1
Reply: 4.92
